meta.source: PubChem BioAssay AID1963870

Give measured viability, T/C for each item. Keep answers brief.
- System: 292921-168-R-J2-PDC KRAS tumor spheroid viability
- RUN_DESCRIPTION: Anticancer human tumor 292921-168-R-J2-PDC patient-derived pancreatic carcinoma cell line growth inhibition [KRAS2]
- CONDITION_SET: second compound 0.316 µM; first compound 0.1 µM; stronger effect = lower value; spheroids with HUVEC and MSC
- Description: Multicellular complex tumor spheroid response to RAS pathway inhibitors in combination with a targeted agents in patient-derived cell lines with oncogenic KRAS variants from multiple cancer types A high-throughput screen of multi-cell type tumor spheroids was designed to identify active combinations of targeted small molecules and KRAS pathway inhibitors. […] Compounds. […] If the clinical Cmax for an agent had not been determined, the highest concentration tested was 10 microM. […]
Numbers only, in %.

Give viability, T/C for each of the items listed below.
1. CC(C)NCC(C(=O)N1CCN(c2ncnc3c2C(C)CC3O)CC1)c1ccc(Cl)cc1 (stereo not drawn) + C=CC(=O)N1CCN(c2nc(=O)n(-c3c(C)ccnc3C(C)C)c3nc(-c4c(O)cccc4F)c(F)cc23)C(C)C1
2. COc1cc2nccc(Oc3ccc(NC(=O)C4(C(=O)Nc5ccc(F)cc5)CC4)cc3)c2cc1OC + COc1cc2nc(C)nc(NC(C)c3cc(N)cc(C(F)(F)F)c3)c2cc1OC1CCOC1
3. CCN1CCN(Cc2ccc(Nc3ncc(F)c(-c4cc(F)c5nc(C)n(C(C)C)c5c4)n3)nc2)CC1 + CNCc1ccccc1-c1csc(C(C)Nc2nc(C)nc3cc(OC)c(OC)cc23)c1

Reply |
1: 96.2; 2: 99.4; 3: 31.8

---

Give measured IC50 for each item. Keep answers brief.
- Test system: 292921-168-R-J2-PDC KRAS tumor spheroid viability
- RUN_DESCRIPTION: Anticancer human tumor 292921-168-R-J2-PDC cell line growth inhibition [KRAS2];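 note: drug exposure lasted seven days after spheroids formed for three days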
- CONDITION_SET: curve of first compound; second compound 1 µM; spheroids with HUVEC and MSC

{"COMPOUND": "COc1cc(Nc2ncc3c(n2)-c2ccc(Cl)cc2C(c2c(F)cccc2OC)=NC3)ccc1C(=O)O + COc1cc2nc(C)nc(NC(C)c3cc(N)cc(C(F)(F)F)c3)c2cc1OC1CCOC1", "EXPERIMENTAL_VALUE": "< 0.0316 µM"}
{"COMPOUND": "CC(C)n1nc(-c2ccc3oc(N)nc3c2)c2c(N)ncnc21 + C=CC(=O)N1CCN(c2nc(=O)n(-c3c(C)ccnc3C(C)C)c3nc(-c4c(O)cccc4F)c(F)cc23)C(C)C1", "EXPERIMENTAL_VALUE": "0.0117 µM"}
{"COMPOUND": "CCNC(=O)CC1N=C(c2ccc(Cl)cc2)c2cc(OC)ccc2-n2c(C)nnc21 (stereo unspecified) + C=CC(=O)N1CCN(c2nc(OCC3CCCN3C)nc3c2CCN(c2cccc4cccc(C)c24)C3)CC1CC#N", "EXPERIMENTAL_VALUE": "< 0.0316 µM"}
{"COMPOUND": "O=C(c1cc(Cc2n[nH]c(=O)c3ccccc23)ccc1F)N1CCN(C(=O)C2CC2)CC1 + CNCc1ccccc1-c1csc(C(C)Nc2nc(C)nc3cc(OC)c(OC)cc23)c1", "EXPERIMENTAL_VALUE": "4.92 µM"}
{"COMPOUND": "CC1COCCN1c1cc(-c2ccnn2C)c2ccnc(-c3ccn[nH]3)c2n1 (stereo unspecified) + CNCc1ccccc1-c1csc(C(C)Nc2nc(C)nc3cc(OC)c(OC)cc23)c1", "EXPERIMENTAL_VALUE": "< 0.01 µM"}

The record that follows has no IC50 shown yet.
Ask | # return IC50 of CN(C)C/C=C/C(=O)Nc1cc2c(Nc3ccc(F)c(Cl)c3)ncnc2cc1O[C@H]1CCOC1 + C=CC(=O)N1CCN(c2nc(OCC3CCCN3C)nc3c2CCN(c2cccc4cccc(C)c24)C3)CC1CC#N (system: 292921-168-R-J2-PDC KRAS tumor spheroid viability)
Reply | 0.00938 µM
